biological target: T1, soluble human FcRn (shFcRn) (human, UniProt P55899 24-297; P61769 21-119); assay: SPR pH 6
T1 construct: Biotinylated for the ELISA, amine-coupled to a CM5 chip for SPR; also called biotinylated shFcRn
T1 sequence (P55899 24-297 limits assumed, chain 1 of 2): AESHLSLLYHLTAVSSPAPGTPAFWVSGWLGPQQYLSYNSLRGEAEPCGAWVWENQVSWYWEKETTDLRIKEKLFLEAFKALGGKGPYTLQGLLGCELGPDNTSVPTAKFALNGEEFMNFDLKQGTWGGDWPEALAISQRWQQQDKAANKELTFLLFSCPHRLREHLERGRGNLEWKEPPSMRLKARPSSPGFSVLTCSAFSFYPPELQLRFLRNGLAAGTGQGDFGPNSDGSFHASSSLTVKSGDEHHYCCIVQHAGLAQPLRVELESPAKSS
T1 sequence (P61769 21-119 limits assumed, chain 2 of 2): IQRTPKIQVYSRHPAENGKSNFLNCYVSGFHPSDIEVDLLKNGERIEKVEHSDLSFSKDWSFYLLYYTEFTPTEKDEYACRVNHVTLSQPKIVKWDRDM
Bridge positions count the residues as written; N and C are the ends. Square brackets hold non-standard residues; d marks the D form. Ends that are not written are not given here. NMeL = CN[C@@H](CC(C)C)C(=O)O; Pen = CC(C)(S)[C@H](N)C(=O)O; Sar = CNCC(=O)O
Result Type: pKd
Remember the convention: pKd equals -log10 of concentration in molar.

GET /values?readout=pKd&item= RF[Pen]TGAFG[Sar][NMeL]YPC-NH2 (disulfide 3-13; N-terminus assumed; SMILES CC(C)C[C@H]1C(=O)N[C@@H](Cc2ccc(O)cc2)C(=O)N2CCC[C@H]2C(=O)N[C@H](C(N)=O)CSSC(C)(C)[C@H](NC(=O)[C@H](Cc2ccccc2)NC(=O)[C@@H](N)CCCNC(=N)N)C(=O)N[C@@H]([C@@H](C)O)C(=O)NCC(=O)N[C@@H](C)C(=O)N[C@@H](Cc2ccccc2)C(=O)NCC(=O)N(C)CC(=O)N1C) [Peptide No. 266]
5.00

Every entry's value here was drawn from patent US20110059889A1.
